- Tested system: rat intestinal maltase
- Construct: native, crude extract of rat intestinal acetone powder (Sigma), not purified; maltose-hydrolysing activity, shared by maltase-glucoamylase and sucrase-isomaltase
- Assay: maltose hydrolysis, glucose assay kit, Lineweaver-Burk with secondary replots
- Condition parameters: mixed inhibition; maltose 0.5-8 mM; pH 6.9, 37 °C
Endpoint name: pKi
Quick note: pKi values are minus log10 of concentrations in mol/L.

Report measured pKi; entry is CC(C)(C)c1cc(SC2OCC3C(c4ccc5c(c4)OCO5)OCC23)cc(C(C)(C)C)c1O (stereo not shown) 4.52

----------
- Tested system: rat intestinal maltase
- Construct: gene Mgam; native, crude extract of rat intestinal acetone powder (Sigma), not purified; maltose-hydrolysing activity, shared by maltase-glucoamylase and sucrase-isomaltase
- Assay: maltose hydrolysis, glucose assay kit, absorbance at […] nm
- Assay type: biochemical
- Condition parameters: maltose (2 mM stock), 0.1 M phosphate pH 6.9, 37 °C, 10 min; read-out: α-Glucosidase Inhibitory Effect (IC50, mM) ^a / Maltase
Endpoint name: IC50 (mM)
Entry rule: numbers only, all in mM.

Compound: Oc1ccc(S[C@H]2OC[C@H]3[C@@H]2CO[C@@H]3c2ccc3c(c2)OCO3)cc1
Tested system: rat intestinal maltase
Recorded measurement: 14.7
--
Compound: C[C@H]1O[C@H](O[C@H]2[C@H](O)[C@@H](O)[C@@H](O[C@H]3[C@H](O)[C@@H](O)C(O)O[C@@H]3CO)O[C@@H]2CO)[C@H](O)[C@@H](O)[C@@H]1N[C@H]1C=C(CO)[C@@H](O)[C@H](O)[C@H]1O (some centres unmarked) [acarbose, reference compound]
Tested system: rat intestinal maltase
Recorded measurement: 1.4
--
Compound: CC(C)(C)c1cc(SC2OCC3C(c4ccc5c(c4)OCO5)OCC23)cc(C(C)(C)C)c1O (centres unmarked)
Tested system: rat intestinal maltase
Recorded measurement: 11.8

Please report IC50 for the following compound: Oc1ccc(S[C@@H]2OC[C@H]3[C@@H]2CO[C@@H]3c2ccc3c(c2)OCO3)cc1 14.2
